# target_entity: human ether-à-go-go-related gene (hERG) potassium channel (human, UniProt Q12809);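 also: peak tail current of the secondary pulse compared with the same well before compound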
# Sequence (Q12809 whole entry, looked up): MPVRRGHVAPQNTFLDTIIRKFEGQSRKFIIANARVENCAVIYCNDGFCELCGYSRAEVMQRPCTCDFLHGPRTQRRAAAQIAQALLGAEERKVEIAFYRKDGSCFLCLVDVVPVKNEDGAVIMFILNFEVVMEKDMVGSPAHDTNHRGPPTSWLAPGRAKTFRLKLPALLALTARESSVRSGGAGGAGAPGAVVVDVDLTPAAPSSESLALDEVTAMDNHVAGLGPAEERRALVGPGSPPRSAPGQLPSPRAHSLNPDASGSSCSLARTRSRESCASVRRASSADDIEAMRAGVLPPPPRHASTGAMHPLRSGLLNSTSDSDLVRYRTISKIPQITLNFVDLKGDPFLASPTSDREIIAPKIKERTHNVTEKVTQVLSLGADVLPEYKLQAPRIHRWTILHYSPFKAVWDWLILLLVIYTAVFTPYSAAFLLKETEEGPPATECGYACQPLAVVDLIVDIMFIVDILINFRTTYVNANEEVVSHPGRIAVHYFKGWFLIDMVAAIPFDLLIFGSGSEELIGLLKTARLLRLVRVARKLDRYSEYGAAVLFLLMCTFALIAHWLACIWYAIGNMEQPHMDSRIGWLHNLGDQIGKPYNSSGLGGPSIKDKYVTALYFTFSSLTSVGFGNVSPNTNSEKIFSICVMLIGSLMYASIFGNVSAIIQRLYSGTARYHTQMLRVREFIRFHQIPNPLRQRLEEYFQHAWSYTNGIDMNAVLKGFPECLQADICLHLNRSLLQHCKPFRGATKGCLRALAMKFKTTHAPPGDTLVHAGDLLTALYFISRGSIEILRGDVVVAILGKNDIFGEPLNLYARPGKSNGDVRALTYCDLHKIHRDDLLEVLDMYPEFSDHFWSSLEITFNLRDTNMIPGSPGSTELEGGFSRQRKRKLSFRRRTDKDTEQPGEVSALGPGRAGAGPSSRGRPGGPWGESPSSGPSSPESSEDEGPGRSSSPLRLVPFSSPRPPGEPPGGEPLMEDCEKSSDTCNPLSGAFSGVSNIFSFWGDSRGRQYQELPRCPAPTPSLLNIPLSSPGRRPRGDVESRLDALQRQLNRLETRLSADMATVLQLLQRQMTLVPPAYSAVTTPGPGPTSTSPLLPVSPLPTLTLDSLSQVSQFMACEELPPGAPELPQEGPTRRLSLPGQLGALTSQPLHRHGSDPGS
# measurement_protocol: primary screen, population patch clamp on CHO cells stably expressing hERG; higher = less effect of the substance
In all, about 310,000 compounds went through this assay and about 14,000 (4.5%) showed an effect of 50% or more. Effects have a minus sign here. The list comes from a sample in which strong results are over-represented; it also holds close analogues and randomly drawn compounds.
Form field: hERG current change (%, negative = inhibition) at 10uM (one value per entry).
Expressed in %, but write only the number.

Look over these answered cases.
[[record]]
compound = "COc1ccc(OCC2NCCc3cc(OC)c(OC)cc32)cc1 (centres unmarked)"
number = -8.93

[[record]]
compound = "CCOC(=O)c1sc(NC(=O)CSc2ncn(-c3ccccc3)n2)nc1C"
number = 7.23

[[record]]
compound = "Br.CC(C)(C)c1ccc(C2=CSC3=NCCN23)cc1"
number = -55.8


Form: compound = N#CC(Cc1ccc(OC(F)F)cc1)c1nc2ccccc2[nH]1 (centres unmarked) ; hERG current change (%, negative = inhibition) at 10uM = -70.1

Form: compound = "Clc1ccc(C2=CSC3=NCCN23)c(Cl)c1.[Br-]" ; hERG current change (%, negative = inhibition) at 10uM = -59.4

Form: compound = "Br.COc1ccc(C2=CSC3=NCCN23)cc1" ; hERG current change (%, negative = inhibition) at 10uM = -6.09

Form: compound = "Br.Cc1ccc(C2=CSC3=NCCN23)c(C)c1" ; hERG current change (%, negative = inhibition) at 10uM = -26.8

Form: compound = COc1cc2c(cc1OC)C(COc1ccc(F)cc1)N(C(C)=O)CC2 (centres unmarked) ; hERG current change (%, negative = inhibition) at 10uM = -11.9

Form: compound = O=C(Nc1ccc(Br)cc1)N1CCCC(O)C1 (centres unmarked) ; hERG current change (%, negative = inhibition) at 10uM = 6.54

Form: compound = CCC(=O)N1CCc2cc(OC)c(OC)cc2C1COc1ccc(C(=O)OC)cc1 (centres unmarked) ; hERG current change (%, negative = inhibition) at 10uM = -1.37

Form: compound = "O=C(OCc1cc(-c2ccccc2)no1)c1ccc2ccccc2n1" ; hERG current change (%, negative = inhibition) at 10uM = 12.2

====

# target_entity: human ether-à-go-go-related gene (hERG) potassium channel (human, UniProt Q12809);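 also: peak tail current of the secondary pulse compared with the same well before compound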
# measurement_protocol: primary screen, population patch clamp on CHO cells stably expressing hERG; higher = less effect of the substance
In all, about 310,000 compounds went through this assay and about 14,000 (4.5%) showed an effect of 50% or more. The effect is printed as a negative number. Shown is part of a subset that was picked to be rich in strong results.
Entry flag: label 1 if hERG current change (%, negative = inhibition) at 10uM reaches -30%; label 0 if it does not.

These solved cases illustrate the format of a correct answer.
[[record]]
molecule = "CCc1ccc(C(=O)N2CCC(c3nc4ccccc4s3)CC2)cc1"
target_entity = "human ether-à-go-go-related gene (hERG) potassium channel (human, UniProt Q12809)"
assigned_category = "label 0"

[[record]]
molecule = "O=C(CCCCCNC(=O)N1CCn2c1nc1ccccc12)NCc1ccccc1Cl"
target_entity = "human ether-à-go-go-related gene (hERG) potassium channel (human, UniProt Q12809)"
assigned_category = "label 1"


Check if hERG current change (%, negative = inhibition) at 10uM >= -30% (inclusive). Item: "O=C(CN1CCC(c2nc3ccccc3s2)CC1)NCc1ccccc1"
label 0

Check if hERG current change (%, negative = inhibition) at 10uM >= -30% (inclusive). Item: "O=C(c1cccc(F)c1)N1CCC(c2nc3ccccc3s2)CC1"
label 0
